Test system: HCV 1b-BB7 subgenomic replicon
Assay: microbe, parasite or virus in culture
Type: cell-based, HCV genotype 1b
Conditions: Hepatitis C virus, stable replicon, strain 1b BB7, 5% FBS + 40% human plasma; read-out: 1b BB7 5% FBS + 40% Human Plasma EC50
Form field: pEC50 (one value per entry).
Worth noting: pEC50 values are minus log10 of concentrations stated in mol/L.

compound	assay metric	measured value
CS(=O)(=O)N(Cc1cnc(-c2ccc3nc[nH]c3c2)s1)c1ccc2c(-c3ncc[nH]3)c(-c3ccccc3)oc2c1 [Example 3]	pEC50	6.12
CS(=O)(=O)N(Cc1cnc(Br)s1)c1cc2oc(-c3ccc(F)cc3)c(-c3ncc[nH]3)c2cc1C1CC1 [Example 67]	pEC50	6.59
CCCCCN(c1cc2oc(-c3ccc(F)cc3)c(-c3ncc[nH]3)c2cc1C1CC1)S(C)(=O)=O [Example 70]	pEC50	6.53

HCV 1b-BB7 subgenomic replicon data for CCS(=O)(=O)CCCN(c1cc2oc(-c3ccc(F)cc3)c(C3=NOCCN3)c2cc1C1CC1)S(C)(=O)=O [Example 143] ; its pEC50: 6.97

HCV 1b-BB7 subgenomic replicon data for CCS(=O)(=O)CCN(c1cc2oc(-c3ccc(F)cc3)c(-c3ncc[nH]3)c2cc1C1CC1)S(C)(=O)=O [Example 96] ; its pEC50: 7.43

HCV 1b-BB7 subgenomic replicon data for Cc1cnc(-c2c(-c3ccc(F)cc3)oc3cc(N(CCC(C)C)S(C)(=O)=O)c(C4CC4)cc23)[nH]1 [Example 172] ; its pEC50: 5.95

HCV 1b-BB7 subgenomic replicon data for CCN(CC)CCN(c1cc2oc(-c3ccc(F)cc3)c(C3=NOCCN3)c2cc1C1CC1)S(C)(=O)=O [Example 129] ; its pEC50: 6.79

HCV 1b-BB7 subgenomic replicon data for CS(=O)(=O)N(CCCn1cccc1)c1cc2oc(-c3ccc(F)cc3)c(C3=NOCCN3)c2cc1C1CC1 [Example 119] ; its pEC50: 6.89

HCV 1b-BB7 subgenomic replicon data for CC(C)(O)CCCN(c1cc2oc(-c3ccc(F)cc3)c(-c3ncc[nH]3)c2cc1C1CC1)S(C)(=O)=O [Example 99] ; its pEC50: 6.98

----------
Molecular target: HCV NS5B polymerase 1b BK strain (Hepatitis C virus genotype 1b)
Construct: six-histidine tag; made in house; host or cells: E. coli
Sequence (P26663 2420-2989): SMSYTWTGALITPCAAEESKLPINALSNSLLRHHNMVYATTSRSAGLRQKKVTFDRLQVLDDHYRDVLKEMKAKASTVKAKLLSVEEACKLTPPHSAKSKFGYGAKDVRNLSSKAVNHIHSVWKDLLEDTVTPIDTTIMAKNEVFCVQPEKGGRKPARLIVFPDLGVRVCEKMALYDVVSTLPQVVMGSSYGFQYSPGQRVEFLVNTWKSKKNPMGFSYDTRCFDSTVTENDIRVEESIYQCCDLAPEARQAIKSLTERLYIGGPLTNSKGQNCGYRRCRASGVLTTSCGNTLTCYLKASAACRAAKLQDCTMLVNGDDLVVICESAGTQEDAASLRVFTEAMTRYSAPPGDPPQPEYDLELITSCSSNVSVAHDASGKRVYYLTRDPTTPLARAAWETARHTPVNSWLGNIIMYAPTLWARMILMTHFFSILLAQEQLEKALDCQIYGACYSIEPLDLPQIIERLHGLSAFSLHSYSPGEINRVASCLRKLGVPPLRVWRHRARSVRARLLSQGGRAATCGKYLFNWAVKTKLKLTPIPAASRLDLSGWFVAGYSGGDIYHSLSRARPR
Assay: HCV NS5B polymerase enzymatic inhibition assay, strain 1b BK
Format: biochemical
Conditions: enzyme, strain 1b BK; read-out: HCV Polymerase Strain 1b BK IC50
Form field: pIC50 (one value per entry).
Worth noting: pIC50 values are minus log10 of concentrations stated in mol/L.

compound	assay metric	measured value
CS(=O)(=O)NC(=O)CCCN(c1cc2oc(-c3ccc(F)cc3)c(-c3ncc[nH]3)c2cc1C1CC1)S(C)(=O)=O [Example 105]	pIC50	7.80

response.value for CC(C)(C)Oc1ncc(-c2ncc(CN(c3ccc4c(-c5ncc[nH]5)c(-c5ccccc5)oc4c3)S(C)(=O)=O)s2)c(OC(C)(C)C)n1 [Example 27] (field: pIC50) = 7.00

response.value for CS(=O)(=O)N(CCC1CCS(=O)(=O)C1)c1cc2oc(-c3ccc(F)cc3)c(C3=NOCCN3)c2cc1C1CC1 (centres unmarked) [Example 123] (field: pIC50) = 7.85

response.value for CS(=O)(=O)CCN(c1cc2oc(-c3ccc(F)cc3)c(C3=NOCCN3)c2cc1C1CC1)S(C)(=O)=O [Example 9] (field: pIC50) = 7.47

response.value for CS(=O)(=O)N(CCCCCO)c1cc2oc(-c3ccc(F)cc3)c(C3=NOCCN3)c2cc1C1CC1 [Example 134] (field: pIC50) = 7.09

----------
Test system: HCV 1a-H77 subgenomic replicon
Assay: microbe, parasite or virus in culture
Type: cell-based, HCV genotype 1a
Settings: Hepatitis C virus, stable replicon, strain 1a H77, 5% FBS, no human plasma; read-out: 1a H77 5% FBS EC50
Form field: EC50 (one value per entry).
Form entry: value (µM) — number only.

Consider the worked cases shown below.
molecule	unit abbrev	EC50
CS(=O)(=O)N(CCCOc1ccccc1)c1cc2oc(-c3ccc(F)cc3)c(-c3ncc[nH]3)c2cc1C1CC1	µM	0.348
COC(=O)CCCN(c1cc2oc(-c3ccc(F)cc3)c(-c3ncc[nH]3)c2cc1C1CC1)S(C)(=O)=O	µM	0.057
CC(=O)CCCN(c1cc2oc(-c3ccc(F)cc3)c(-c3ncc[nH]3)c2cc1C1CC1)S(C)(=O)=O	µM	0.0079
CNC(=O)CCCN(c1cc2oc(-c3ccc(F)cc3)c(-c3ncc[nH]3)c2cc1C1CC1)S(C)(=O)=O	µM	0.0175
CS(=O)(=O)N(CCCN)c1cc2oc(-c3ccc(F)cc3)c(-c3ncc[nH]3)c2cc1C1CC1	µM	0.262

response.value for C[S+]([O-])CCN(c1cc2oc(-c3ccc(F)cc3)c(C3=NOCCN3)c2cc1C1CC1)S(C)(=O)=O (stereo not shown) (field: EC50) = 0.0465

response.value for CS(=O)(=O)N(CC#N)c1cc2oc(-c3ccc(F)cc3)c(-c3ncc[nH]3)c2cc1C1CC1 (field: EC50) = 0.067

----------
Test system: HCV 1b-BB7 subgenomic replicon
Assay: microbe, parasite or virus in culture
Type: cell-based, HCV genotype 1b
Details: Hepatitis C virus, stable replicon, strain 1b BB7, 5% FBS; read-out: 1b BB7 5% FBS EC50
assay metric: pEC50
Worth noting: pEC50 values are minus log10 of concentrations stated in mol/L.

molecule	pEC50
CS(=O)(=O)N(CCCC(=O)O)c1cc2oc(-c3ccc(F)cc3)c(-c3ncc[nH]3)c2cc1C1CC1	7.04
Cc1ccc(C)n1-c1nc(CCCN(c2cc3oc(-c4ccc(F)cc4)c(-c4ncc[nH]4)c3cc2C2CC2)S(C)(=O)=O)cs1	7.15
CS(=O)(=O)N(CCCO)c1cc2oc(-c3ccc(F)cc3)c(C3=NOCCN3)c2cc1C1CC1	7.77
CS(=O)(=O)N(CCCC(N)=O)c1cc2oc(-c3ccc(F)cc3)c(-c3ncc[nH]3)c2cc1C1CC1	8.00

Shift focus to the following entry.
response.value for CS(=O)(=O)Nc1cc2oc(-c3ccc(F)cc3)c(-c3ncc[nH]3)c2cc1C1CC1 (field: pEC50) = 7.74

----------
Form field: C316Y/1a Fold Resistance (one value per entry).
Tested on: HCV NS5B polymerase 1a-H77-C316Y
Assay: biochemical
Parameters: species or system HCV genotype 1a
Settings: ratio of enzyme IC50s, 1a H77-C316Y / 1a H77
Don't forget the unit after the value.

smiles str	C316Y/1a Fold Resistance
CS(=O)(=O)N(CCCF)c1cc2oc(-c3ccc(F)cc3)c(-c3ncc[nH]3)c2cc1C1CC1	20 fold

response.value for CS(=O)(=O)N(CCCC(=O)O)c1cc2oc(-c3ccc(F)cc3)c(-c3ncc[nH]3)c2cc1C1CC1 (field: C316Y/1a Fold Resistance) = 15 fold

response.value for Cc1c[nH]c(-c2c(-c3ccc(F)cc3)oc3cc(N(CCO)S(C)(=O)=O)c(C4CC4)cc23)n1 (field: C316Y/1a Fold Resistance) = 18 fold

response.value for COc1ccc(CN(c2cc3oc(-c4ccc(F)cc4)c(-c4nc(Cl)c[nH]4)c3cc2C2CC2)S(C)(=O)=O)cc1 (field: C316Y/1a Fold Resistance) = 178 fold

response.value for CS(=O)(=O)CCCCN(c1cc2oc(-c3ccc(F)cc3)c(C3=NOCN3)c2cc1C1CC1)S(C)(=O)=O (field: C316Y/1a Fold Resistance) = 8 fold

response.value for CN(C)CCCN(c1cc2oc(-c3ccc(F)cc3)c(C3=NOCCN3)c2cc1C1CC1)S(C)(=O)=O (field: C316Y/1a Fold Resistance) = 26 fold

response.value for CS(=O)(=O)N(CCCC(N)=O)c1cc2oc(-c3ccc(F)cc3)c(-c3ncc[nH]3)c2cc1C1CC1 (field: C316Y/1a Fold Resistance) = 17 fold

----------
Test system: HCV 1b-BB7 subgenomic replicon
Experiment: microbe, parasite or virus in culture
Format: cell-based, HCV genotype 1b
Settings: Hepatitis C virus, stable replicon, strain 1b BB7, 5% FBS; read-out: 1b BB7 5% FBS EC50
assay metric: pEC50
Worth noting: pEC50 values are minus log10 of concentrations stated in mol/L.

Consider the worked cases shown below.
compound	measured value
CC(C)CCN(c1cc2oc(-c3ccc(F)cc3)c(C3=NOC(C)N3)c2cc1C1CC1)S(C)(=O)=O (stereo not shown)	7.03
CS(=O)(=O)N(CC1CC1(F)F)c1cc2oc(-c3ccc(F)cc3)c(-c3ncc[nH]3)c2cc1C1CC1 (stereo not shown)	7.43
CC(C)CCN(c1cc2oc(-c3ccc(F)cc3)c(C3=NOC(C)(C)N3)c2cc1C1CC1)S(C)(=O)=O	5.00
CCS(=O)(=O)CCCN(c1cc2oc(-c3ccc(F)cc3)c(C3=NOCCN3)c2cc1C1CC1)S(C)(=O)=O	7.92
CC(C)CCN(c1cc2oc(-c3ccc(F)cc3)c(C3=NOCCN3)c2cc1C1CC1)S(C)(=O)=O	7.79

HCV 1b-BB7 subgenomic replicon data for CS(=O)(=O)N(CCCC(=O)O)c1cc2oc(-c3ccc(F)cc3)c(C3=NOCN3)c2cc1C1CC1 ; its pEC50: 7.03

HCV 1b-BB7 subgenomic replicon data for CC(C)(C)[Si](C)(C)OCCCCN(c1cc2oc(-c3ccc(F)cc3)c(-c3ncc[nH]3)c2cc1C1CC1)S(C)(=O)=O ; its pEC50: 6.92

Origin of values: patent US20160355530A1
